molecular target: G protein-coupled receptor kinase 5 (Homo sapiens); conditions: at 10 µM
EXPERIMENTAL READOUT: residual activity (%)
Answers are plain numbers, in %.

Look over these answered cases.
IN: // returns reported residual activity for input CC(C)[C@H](CO)Nc1nc(Nc2cc(N)cc(Cl)c2)c2ncn(C(C)C)c2n1
OUT: 44

IN: Entry NCCNc1ncc(C(N)=O)c(Nc2cccc(C(F)(F)F)c2)n1 : reported residual activity = ?
OUT: 79

IN: I am curious: what residual activity value has been reported for COc1cc2nccc(Oc3ccc(NC(=O)Nc4cc(C)on4)c(Cl)c3)c2cc1OC ?
OUT: 104

IN: Fill blank: measured residual activity of the compound O=C(c1cc2cc(O)ccc2[nH]1)c1cc2cc(O)ccc2[nH]1 is ____.
OUT: 82

IN: Recorded residual activity for c1ccc(-c2cnc(Nc3ccc(OCCN4CCCC4)cc3)s2)cc1 , please?
OUT: 105

IN: I have this compound here, O=C1C(Cl)=C(N2C(=O)CCC2=O)C(=O)c2ccccc21 , and I need its recorded residual activity.
OUT: 94

IN: Any idea what its residual activity is? The compound is O=C1NC(=O)C(c2cn(CCCO)c3ncccc23)=C1c1cnccn1
OUT: 93

IN: Quick one: residual activity for O=C1NC(=O)c2c1c1c3ccccc3[nH]c1n1cncc21 ?
OUT: 70

IN: Can you look up the measured residual activity of O=C1Cc2c([nH]c3ccc(Br)cc23)-c2ccccc2N1 for me?
OUT: 96

IN: Need residual activity, item Nc1n[nH]c2nc3ccccc3nc12
OUT: 94

Batch request: residual activity per item, same order as input.
1. O=C(O)/C=C/c1cc(Br)c(Br)c(Br)c1Br
2. COc1ccc2c(c1)c(C1=C(c3c[nH]c4ccccc34)C(=O)NC1=O)cn2CCCN(C)C
3. CC(C)(C)n1nc(Cc2cccc3ccccc23)c2c(N)ncnc21

OUT:
1: 91; 2: 51; 3: 96
